These data points were gathered from patent US20110301087A1.

# TESTED_TARGET: CRF1 (Homo sapiens)
# Construct: endogenously expresses functional CRF1; endogenous in cells
# Sequence (P34998 24-415): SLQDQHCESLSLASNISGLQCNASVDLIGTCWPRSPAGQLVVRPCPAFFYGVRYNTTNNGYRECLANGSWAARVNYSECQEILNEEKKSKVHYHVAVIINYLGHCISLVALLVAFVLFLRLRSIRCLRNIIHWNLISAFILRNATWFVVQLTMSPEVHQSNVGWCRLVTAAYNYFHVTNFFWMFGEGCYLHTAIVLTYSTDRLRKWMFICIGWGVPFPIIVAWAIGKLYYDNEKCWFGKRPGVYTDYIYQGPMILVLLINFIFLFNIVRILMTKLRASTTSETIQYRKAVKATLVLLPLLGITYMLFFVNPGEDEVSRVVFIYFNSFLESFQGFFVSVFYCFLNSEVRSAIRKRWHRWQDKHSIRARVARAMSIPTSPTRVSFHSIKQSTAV
# TEST_PROTOCOL: CRF1 assessment of cAMP (HTRF cAMP assay) in Y-79 cells, antagonist mode
# MEASUREMENT_PARAMETERS: CRF1 cAMP screening, Y79 cells, against agonist
pIC50: −log10 of the molar value. Where a SMILES comes first, the peptide text is derived from it. The star is where a group is joined. Palmitoyl = CCCCCCCCCCCCCCCC(=O)*
METRIC_NAME: pIC50

COMPOUND	pIC50
CCCCCCCCCCCCCCCC(=O)NCC(=O)N[C@@H](CO)C(=O)N[C@H](C(=O)N[C@@H](CC(=O)O)C(=O)N[C@@H](CCCNC(=N)N)C(=O)N[C@@H](CC(C)C)C(=O)N[C@@H](CCCNC(=N)N)C(=O)N[C@@H](CCCCN)C(=O)N[C@@H](Cc1c[nH]c2ccccc12)C(=O)N[C@@H](CCSC)C(=O)N[C@@H](C)C(=O)N[C@H](C(N)=O)[C@@H](C)CC)[C@@H](C)O [Compound 38] (Palmitoyl-GSTDRLRKWMAI-NH2)	5.30 to 6.00
CCCCCCCCCCCCCCCC(=O)N[C@@H](CCCNC(=N)N)C(=O)N[C@@H](CC(C)C)C(=O)N[C@@H](CCCNC(=N)N)C(=O)N[C@@H](CCCCN)C(=O)N[C@@H](Cc1c[nH]c2ccccc12)C(=O)N[C@@H](CCSC)C(=O)N[C@@H](C)C(=O)N[C@H](C(N)=O)[C@@H](C)CC [Compound 41] (Palmitoyl-RLRKWMAI-NH2)	6.00 to 6.30

Data request: I'd like to know its pIC50. The compound in question is CCCCCCCCCCCCCCCC(=O)N[C@H](C(=O)N[C@@H](CC(=O)O)C(=O)N[C@@H](CCCNC(=N)N)C(=O)N[C@@H](CC(C)C)C(=O)N[C@@H](CCCNC(=N)N)C(=O)N[C@@H](CCCCN)C(=O)N[C@@H](Cc1c[nH]c2ccccc12)C(=O)N[C@@H](C)C(=O)N[C@@H](Cc1ccccc1)C(=O)N[C@H](C(N)=O)[C@@H](C)CC)[C@@H](C)O [Compound 51] (Palmitoyl-TDRLRKWAFI-NH2)
Data returned: 6.00 to 6.30
